target: glucosylceramide synthase (GCS) (Homo sapiens (Human)); assay: Evaluation of inhibitory activities against GCS (enzyme reaction with A549 cell lysate, NBD C6-ceramide, HPLC fluorescence); conditions: GCS activity in A549 cell lysate, 37° C. for 90 minutes
Sequence (Q16739 whole entry, looked up): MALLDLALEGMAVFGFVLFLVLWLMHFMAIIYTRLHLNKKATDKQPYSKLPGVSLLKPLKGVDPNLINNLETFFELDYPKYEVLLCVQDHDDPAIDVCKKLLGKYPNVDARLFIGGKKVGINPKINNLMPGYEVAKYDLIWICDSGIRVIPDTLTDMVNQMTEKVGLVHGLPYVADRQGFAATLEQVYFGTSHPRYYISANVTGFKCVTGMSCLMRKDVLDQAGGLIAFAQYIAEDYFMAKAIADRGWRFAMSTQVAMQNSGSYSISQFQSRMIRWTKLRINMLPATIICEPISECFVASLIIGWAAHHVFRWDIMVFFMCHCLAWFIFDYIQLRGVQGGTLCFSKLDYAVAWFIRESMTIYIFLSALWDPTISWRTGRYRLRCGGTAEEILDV
pIC50: −log10 of the molar value.
If the reported pIC50 equals or exceeds 8, assign y. If not, assign n.

See these solved cases before continuing.
COc1ccc(-c2cc3c(cc2F)C(NC(=O)O[C@@H]2CN4CCC2CC4)C(C)(C)CC3)cc1F (some centres unmarked) [Example 227] = y
COc1ccc(Cl)c(-c2ccc3c(c2)CCC(C)(C)C3NC(=O)O[C@@H]2CN3CCC2CC3)c1 (some centres unmarked) [Example 125] = y
O=C(NC1CCCc2cc(-c3ccc(F)cc3F)ccc21)O[C@@H]1CN2CCC1CC2 (some centres unmarked) [Example 18] = y
Cc1cccc(-c2ccc3c(c2)C(NC(=O)O[C@@H]2CN4CCC2CC4)CCC3)c1 (some centres unmarked) [Example 85] = n
COc1ccc(-c2ccc3c(c2)CCC(C)(C)C3NC(=O)O[C@@H]2CN3CCC2CC3)cc1Cl (some centres unmarked) [Example 139] = y

Decide: is the reported value of pIC50 for CN(C)c1cccc(-c2ccc3c(c2)CCC2(CC2)C3NC(=O)O[C@@H]2CN3CCC2CC3)c1 (some centres unmarked) [Example 207] equal to or greater than 8?
n

Decide: is the reported value of pIC50 for O=C(NC1CCCc2ccc(-c3ccc(F)cc3)cc21)O[C@@H]1CN2CCC1CC2 (some centres unmarked) [Example 55] equal to or greater than 8?
n

The measured values listed here are drawn from patent US12338237B2.
